Assay: PK simulation and model analysis using Phoenix WinNonlin 8.1 (non-compartmental and compartmental)
Assay type: in vivo
Settings: male, CD1, mouse, plasma, iv, 5 mg/kg, 2-CA, 0-6 h; read-out: tvV1 (typical value of compartmental volume of distribution)
measured.attribute: Vd

compound="COc1cc(C(C)=O)ccc1O [Apocynin, 4‐hydroxy‐3‐methoxyacetophenone]" measured_attribute=Vd endpoint_value="0.531 L"

====

Assay: PK simulation and model analysis using Phoenix WinNonlin 8.1 (non-compartmental and compartmental)
Assay type: in vivo
Conditions: male, CD1, mouse, plasma, iv, 5 mg/kg, 2-CA (two compartmental analysis), 0-6 h; read-out: AUC0‐∞
measured.attribute: AUC (ng·h/mL)

molecule="COc1cc(C(C)=O)ccc1O [Apocynin, 4‐hydroxy‐3‐methoxyacetophenone]" endpoint_value=711

====

Test: PK simulation and model analysis using Phoenix WinNonlin 8.1 (non-compartmental and compartmental)
Format: in vivo
Conditions: male, CD1, mouse, plasma, iv, 5 mg/kg, NCA, iv 5 mg/kg, n = 3; read-out: AUC0‐∞
Method: PK parameters simulation was performed using the Phoenix WinNonlin 8.1 software (Certara.com). […] Data collected from sampling time 1‐360 minutes after iv injection were then pooled (n = 3) and tested against various compartmental models for a best fit using Phoenix WinNonlin 8.1 software. Parameters included the Akaike's information criterion (AIC), Bayesian information criteria (BIC) and corrected AIC (AICc) calculated using the equation: AICc = AIC +2 × nParm (nParm + 1)/(nObs − nParm − 1). ^21
measured.attribute: AUC (ng·h/mL)

molecule="COc1cc(C(C)=O)ccc1O [Apocynin, 4‐hydroxy‐3‐methoxyacetophenone]" scale_unit=ng·h/mL endpoint_value=644

====

Test: Time-dependent distribution of apocynin in plasma, urine and tissues after iv bolus injection (HPLC-MS/MS)
Type: in vivo, mouse
Settings: male, mouse, brain; CD1 mice, iv bolus 5 mg/kg, 30 minutes; read-out: brain apocynin concentration
measured.attribute: concentration at 30 min (ng/g)

compound="COc1cc(C(C)=O)ccc1O [Apocynin, 4‐hydroxy‐3‐methoxyacetophenone]" endpoint_value=103

====

Assay: Time-dependent distribution of apocynin in plasma, urine and tissues after iv bolus injection (HPLC-MS/MS)
Assay type: in vivo, mouse
Settings: male, mouse, plasma; CD1 mice, iv bolus 5 mg/kg, 5 minutes
measured.attribute: concentration at 5 min (ng/mL)

compound="COc1cc(C(C)=O)ccc1O [Apocynin, 4‐hydroxy‐3‐methoxyacetophenone]" measured_attribute="concentration at 5 min" endpoint_value=3240
